B1: FERM and PDZ domain-containing protein 4, residues 75 to 154; numbered along this chain, Q14CM0 (parent)
chain: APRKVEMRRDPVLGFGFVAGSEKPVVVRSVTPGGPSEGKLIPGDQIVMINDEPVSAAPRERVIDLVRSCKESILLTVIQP

variants of: B1; assay: abundance fitness (aPCA) (normalised: wild type 0, dead -1); higher = more abundant; growth selection in yeast, the domain comes from the species named; settings: Homo sapiens
Measured parameter: abundance fitness

- V47L: 0.012
- P32Y: -0.136
- V66G: -0.73

Value source: the Human Domainome abundance scans (Beltran et al. 2025)
